Reference for the values: ChEMBL document CHEMBL1137824

- Assay Details: Partition coefficient (logP)
- Type: physicochemical
- Condition: octanol/water
Property Name: logP

- Compound: "NC(=O)C1=CN(CCCCC(NC(=O)[C@@H]2CCC(=O)N2)C(=O)N2CCC[C@H]2C(N)=O)C=CC1 (some centres undefined)"
  logP: -1.94

1: NC(=O)c1ccc[n+](C[C@H](NC(=O)[C@@H]2CCC(=O)N2)C(=O)N2CCC[C@H]2C(N)=O)c1.O=C([O-])C(F)(F)F
2: NC(=O)c1ccc[n+](CCC[C@H](NC(=O)[C@@H]2CCC(=O)N2)C(=O)N2CCC[C@H]2C(N)=O)c1
Prompt: Which value of logP is greater, the one for 1 or the one for 2 ? Use the label to indicate which entry you chose.
Completion: 2
(2: -1.74, 1: -2.64)

a: NC(=O)c1ccc[n+](CC[C@H](NC(=O)[C@@H]2CCC(=O)N2)C(=O)N2CCC[C@H]2C(N)=O)c1
b: NC(=O)C1=CN(C[C@H](NC(=O)[C@@H]2CCC(=O)N2)C(=O)N2CCC[C@H]2C(N)=O)C=CC1
c: NC(=O)c1ccc[n+](CCCC[C@H](NC(=O)[C@@H]2CCC(=O)N2)C(=O)N2CCC[C@H]2C(N)=O)c1
Prompt: Sort (3 compounds) by logP: min first. # output: labels, in the requested order
Completion: b, a, c
(b: -3.29, a: -2.18, c: -1.29)

a: NC(=O)C1=CN(CCC(NC(=O)[C@@H]2CCC(=O)N2)C(=O)N2CCC[C@H]2C(N)=O)C=CC1 (some centres undefined)
b: NC(=O)[C@@H]1CCCN1C(=O)[C@H](Cc1cnc[nH]1)NC(=O)[C@@H]1CCC(=O)N1
Prompt: Of a and b , which carries the smaller reported logP figure? Use the label to indicate which entry you chose.
Completion: a

====

- Assay Details: Half-life of compound in rat plasma was determined
- Format: ADME, cell-free
Property Name: half-life (min)
Give your result in min as a bare value.

Prompt: Dear colleague, please send me the reported half-life for NC(=O)[C@@H]1CCCN1C(=O)[C@H](Cc1cnc[nH]1)NC(=O)[C@@H]1CCC(=O)N1 when you can.
Completion: 11

====

- Assay Details: Capacity factor of compound was determined by immobilized artificial membrane chromatography
- Type: ADME
Property Name: K''IAM

These recorded examples may help you get a feel for the data.
- Molecule: "NC(=O)[C@@H]1CCCN1C(=O)[C@H](Cc1cnc[nH]1)NC(=O)[C@@H]1CCC(=O)N1"
  K''IAM: 0.51
- Molecule: "NC(=O)C1=CN(CCC[C@H](NC(=O)[C@@H]2CCC(=O)N2)C(=O)N2CCC[C@H]2C(N)=O)C=CC1"
  K''IAM: 1.47
- Molecule: "NC(=O)c1ccc[n+](C[C@H](NC(=O)[C@@H]2CCC(=O)N2)C(=O)N2CCC[C@H]2C(N)=O)c1.O=C([O-])C(F)(F)F"
  K''IAM: 0.3
- Molecule: "NC(=O)C1=CN(C[C@H](NC(=O)[C@@H]2CCC(=O)N2)C(=O)N2CCC[C@H]2C(N)=O)C=CC1"
  K''IAM: 0.55
- Molecule: "NC(=O)c1ccc[n+](CC[C@H](NC(=O)[C@@H]2CCC(=O)N2)C(=O)N2CCC[C@H]2C(N)=O)c1"
  K''IAM: 0.42

1: NC(=O)c1ccc[n+](CCC[C@H](NC(=O)[C@@H]2CCC(=O)N2)C(=O)N2CCC[C@H]2C(N)=O)c1
2: NC(=O)C1=CN(CCC(NC(=O)[C@@H]2CCC(=O)N2)C(=O)N2CCC[C@H]2C(N)=O)C=CC1 (some centres undefined)
Prompt: Which value of K''IAM is greater, the one for 1 or the one for 2 ? Use the label to indicate which entry you chose.
Completion: 2
(2: 0.8, 1: 0.49)

P: NC(=O)c1ccc[n+](CCCC[C@H](NC(=O)[C@@H]2CCC(=O)N2)C(=O)N2CCC[C@H]2C(N)=O)c1
Q: NC(=O)C1=CN(CCCCC(NC(=O)[C@@H]2CCC(=O)N2)C(=O)N2CCC[C@H]2C(N)=O)C=CC1 (some centres undefined)
Prompt: Which value of K''IAM is greater, the one for P or the one for Q ? Use the label to indicate which entry you chose.
Completion: Q
